tested on: PfIESI-1 RRM domain (Plasmodium falciparum ortholog aa 875-1232, GST fusion); experiment: RBNS R-value (6-mer enrichment in protein-bound RNA vs input library) (ratio); higher = stronger binding preference; conditions: protein concentration: 250 nM
Over roughly 4,100 sequences, “RBNS R-value (6-mer enrichment in protein-bound RNA vs input library)” has its median near 0.99; the highest 2% begin near 1.4. Many of the other results were omitted from the sample, so the highest values are more common in it than they were.
readout: RBNS R-value

• CCCUCU = 0.993
• CCUUUA = 0.814
• GAUGGG = 1.47
• CCUUGG = 1.13
• UGGGUC = 0.985
• UUGUCA = 0.891
• UAUGGC = 1.09
• GAGGCC = 1.15
• GCGCGA = 1.1
• CUCACC = 1.06
• GCUUGA = 1.36
• CAGAAC = 1.11
• GAUGGC = 1.85

---

test system: PfIESI-1 RRM domain (Plasmodium falciparum ortholog aa 875-1232, GST fusion); experiment: RBNS R-value (6-mer enrichment in protein-bound RNA vs input library) (ratio); higher = stronger binding preference; details: protein concentration: 1000 nM
In all, about 4,100 sequences were measured (“RBNS R-value (6-mer enrichment in protein-bound RNA vs input library)”: median about 0.99, highest 2% from about 1.4 on). The sample as a whole holds a higher share of the highest values than the screen did.
Would you please tag the item Criterion met when its RBNS R-value is 1 or above, and Criterion not met when it is below?

* CAUCAU | Criterion not met
* UAUGAU | Criterion met
* CUUAUA | Criterion not met
* GCACCU | Criterion met
* AUUCCA | Criterion met
* GACACC | Criterion met
* ACACCA | Criterion met
* GCACCC | Criterion met
* UAUGAG | Criterion not met
* UCCUUU | Criterion not met
* GUAUUG | Criterion not met
* CCCGCU | Criterion met
* ACACCC | Criterion met
* ACACCU | Criterion met
* AAGCGC | Criterion met
* UGAGUG | Criterion met
* GGGGUG | Criterion met

---

system: PfIESI-1 RRM domain (Plasmodium falciparum ortholog aa 875-1232, GST fusion); experiment: RBNS R-value (6-mer enrichment in protein-bound RNA vs input library) (ratio); higher = stronger binding preference; settings: protein concentration: 1000 nM
Over roughly 4,100 sequences, “RBNS R-value (6-mer enrichment in protein-bound RNA vs input library)” has its median near 0.99; the highest 2% begin near 1.4. Shown is part of a subset that was picked to be rich in the highest values.
Would you please tag the item 1.0 when its RBNS R-value is 1 or above, and 0.0 when it is below?

* CAUGUG | 0.0
* CCUGAU | 1.0
* GAUUCG | 1.0
* CCGCCA | 1.0
* UACCUA | 0.0
* GAUGUA | 1.0
* ACCUGA | 1.0
* GCUUGU | 0.0
* AGGGAG | 1.0
* GAUGUC | 1.0
* GAUUUC | 1.0
* CCUGAC | 1.0
* ACCUGC | 1.0
* CCUUGU | 0.0
* GACCCA | 1.0
* AGAUUC | 1.0
* AAUUCC | 1.0
* GAUUCA | 1.0
* UAUGUA | 0.0
* CGAGGC | 1.0
* GAUAAC | 1.0
* GGGAGU | 1.0
* UACACG | 0.0
* CGAUCC | 1.0
* GAUGUU | 1.0
* AAACGG | 1.0
* UACCCG | 1.0
* UUCAUC | 0.0
* CACCCC | 1.0
* UAUUCA | 0.0
* UUCUAC | 0.0
* GAUGUG | 1.0
* UUAUAA | 0.0
* UGAUUC | 1.0
* UACCGC | 0.0
* CAUUCG | 1.0
* CUAUCU | 0.0
* GGGAAC | 1.0
* CUCUAC | 0.0
* UAUUCU | 0.0
* GCAUGA | 1.0
* GCAUGG | 1.0
* AACAGG | 1.0
* CGAUUG | 1.0
* GAUUCU | 1.0
* UCCACU | 0.0
* UUGACU | 1.0
* GGCCCG | 1.0
* CCUCCC | 1.0
* GUAAUA | 0.0
* AAUGUA | 0.0
* AUGGCA | 1.0
* GUCCUC | 0.0
* CCUUUA | 0.0
* CCCUGA | 1.0
* GAUUUA | 1.0
* CGGGGU | 1.0
* ACCUGG | 1.0
* CACCCG | 1.0
* UGCCCG | 1.0

---

RBNS R-value: recorded values
system: PfIESI-1 RRM domain (Plasmodium falciparum ortholog aa 875-1232, GST fusion); experiment: RBNS R-value (6-mer enrichment in protein-bound RNA vs input library) (ratio); higher = stronger binding preference; conditions: protein concentration: 250 nM
Over roughly 4,100 sequences, “RBNS R-value (6-mer enrichment in protein-bound RNA vs input library)” has its median near 0.99; the highest 2% begin near 1.4. This excerpt belongs to a sample that is enriched for the highest values.
readout: RBNS R-value

- CCAAAU: 0.978
- GUUGAC: 1.01
- GACCUC: 1.02
- AGUGAU: 1.55
- UGCGAC: 1.06
- GGUGAC: 0.986
- GAUUAG: 1.3
- CUAACC: 0.953
- CGAUGC: 1.26
- CCAUGA: 1.4
- CACCUG: 1.41
- CGUGAA: 0.992
- AACAGG: 0.999
- CGCCCG: 1.43
- UACCCG: 1.3
- CGAUGA: 1.66
- UGCUAC: 0.931
- CUUUUU: 0.934
- GGAUAG: 1.02
- AUUGAG: 1.07
- AGGACA: 1
- UGAAAA: 1.16
- GGCCCG: 1.26
- GGAUAC: 1.01
- AAACGG: 1.06
- GUAUCA: 0.785
- AUGUGC: 1.04
- UACCUA: 0.87
- CGAUCG: 0.905
- GCCCUG: 1.19
- CCUCCC: 1.06
- UGUGAU: 1.55
- GUUGAU: 1.71
- GUUCCU: 1.02
- CUCCCU: 0.934
- GAGUGC: 1.09
- CGGGUC: 1.03
- UGAUAG: 1.87
- CAUAAU: 0.76
- UGACAU: 1.14
- CUUGAC: 1.28
- GCCCCU: 1.04
- AGAUAG: 0.998
- CAUUAG: 0.827
- UUUGAC: 1.17
- CGAUGU: 1.13
- AGUGAA: 0.981
- UAAUCC: 0.907
- AGGUAA: 0.909
- CUUUAU: 0.759
- CUUGAU: 2.01
- UGGCUU: 1.01
- AUUGAC: 1.12
- UUAUUA: 0.766
- GCGGUA: 0.985
- GGUGAU: 1.33
- UUUUUG: 1.18
- AACACA: 0.942
- CGUAAA: 0.871
- GUGUCA: 0.85
- UUCAUC: 0.934
- GCAGGU: 1.01
- GAUUAC: 1.36
- CCAUGG: 1.07
- GAUCGC: 0.972
- GCAUCC: 1.14
- AAAGCU: 0.98
- ACAACG: 0.949
- CUCCUA: 0.889
- CGAUAC: 1.04
- CUUGAA: 1.1
- CAUUAC: 0.794
- AACCCG: 1.38
- UGCAAG: 0.989
- AGCUGU: 0.94
- GGCUGG: 1.06
- UUUGAU: 2.39
- AGAUAU: 0.955
- UGUCAC: 0.945
- GGUGAG: 1.02
- CGGUCA: 0.933
- UUCUAC: 0.96
- UGGACA: 0.973

---

system: PfIESI-1 RRM domain (Plasmodium falciparum ortholog aa 875-1232, GST fusion); test: RBNS R-value (6-mer enrichment in protein-bound RNA vs input library) (ratio); higher = stronger binding preference; the methods of the paper give 50 / 100 / 500 nM protein instead; details: protein concentration: 500 nM
Over roughly 4,100 sequences, “RBNS R-value (6-mer enrichment in protein-bound RNA vs input library)” has its median near 0.99; the highest 2% begin near 1.4. The full list was thinned out, with the highest values kept by preference.
Would you please tag the item TRUE when its RBNS R-value is 1 or above, and FALSE when it is below?

- CUCUCU: FALSE
- GUAACA: FALSE
- CCUUUA: FALSE
- UCUGAG: TRUE
- AUGAAU: TRUE
- GUAUCA: FALSE
- GUGCGC: FALSE
- AUGAGC: TRUE
- ACACCA: TRUE
- AAUGGG: TRUE
- AGGAUA: TRUE
- ACACCC: TRUE
- CCUGCG: TRUE
- UUGAUC: TRUE
- GCGGUA: FALSE
- ACGAUG: TRUE
- UAGAUG: TRUE
- GAUGUA: TRUE
- UCUGAU: TRUE
- GUGAUG: TRUE
- AGAUAG: TRUE
- GAAGAC: TRUE
- GGAUAU: FALSE
- AACAGG: TRUE
- GUAUUG: FALSE
- AUAUAC: FALSE
- AUGAGA: TRUE
- GCUGAU: TRUE
- ACUGAU: TRUE
- GAUACG: TRUE
- GAUGGG: TRUE
- GAAUUU: TRUE
- CCUUGG: TRUE
- UAUGGC: TRUE
- ACUGAG: TRUE
- CAGUAA: FALSE
- GAUAAC: TRUE
- UAACGC: FALSE
- GAUGUG: TRUE
- AAACGG: TRUE
- UGUGAU: TRUE
- CUAGAG: TRUE
- UUGAUA: TRUE
- UGAUAA: TRUE
- CGAUAC: TRUE
- GUCCUC: FALSE
- GGUCUU: FALSE
- CUGAUC: TRUE
- ACUUGA: TRUE
- CUGAUA: TRUE
- ACUGCC: FALSE
- UCUUGA: TRUE
- ACUUGU: FALSE
- AUUCCG: TRUE
- CGAUAA: TRUE
- CCUUGC: TRUE
- GAUGUC: TRUE
- GAUGUU: TRUE
- CCUGAG: TRUE
- AAUGUA: FALSE
- GCACCG: TRUE
- AGGAUU: TRUE
- AGUGAC: TRUE
- UAUGUG: FALSE
- GCGAUG: TRUE
